# System: SK-MEL-2 melanoma
# TEST_METHOD_NOTES: NCI tumour cell line growth inhibition, 48 h
This section presents molecules with their documented TGI values.
ENDPOINT: TGI

O=S1(=O)NNC(=NCc2ccc(Cl)cc2)c2ccccc21 :: > 100 µM
O=C(C1=C(C(=O)c2ccccc2)SC2(S1)C(C(=O)c1ccccc1)=C(C(=O)c1ccccc1)Sc1c2ssc1=O)c1ccccc1 :: > 100 µM
C#CCN1C(=O)/C(=c2\sc3n(c2=O)C2C(NN=3)N(CC)C(=O)N2CC)c2ccccc21 (configuration not stated) :: > 100 µM
Cc1cccc(NC(=O)C(=O)C2C(=O)NC(=O)NC2=O)c1C :: > 100 µM
O=C(N/N=C\c1cccc2ccccc12)Nc1ccc([N+](=O)[O-])cc1 :: > 68.7 µM
Cc1ccc(S(=O)(=O)n2cncc2CO)cc1 :: > 100 µM
COC(=O)/C=C/C(=O)C1C(C(=O)OC)C2(C(=O)OC)CCC1(C(=O)OC)N2 (configuration not stated) :: > 100 µM
Cc1cc(NS(=O)(=O)c2ccc(Nc3c4ccccc4nc4c(C(=O)Nc5ccc(S(=O)(=O)N=C(N)N)cc5)cccc34)cc2)no1 :: > 100 µM
Clc1nc(-[n+]2ccc(-c3ccncc3)cc2)nc(Nc2ccccc2)c1Cl :: > 100 µM
CCOC(=O)c1nc2c3c(ncn2n1)Oc1c(c(-c2ccccc2)nn1-c1ccccc1)C3c1ccc(Cl)cc1 (configuration not stated) :: > 100 µM
O=C(O)/C=C(/CC(=O)O)C(=O)O :: 41.9 µM
C=C1CCC2C3(C)COC(c4ccc(NC(C)=O)cc4)OC3CCC2(C)C1C/C=C1/C(=O)OCC1O (configuration not stated) :: > 100 µM
O=c1[nH]c(=O)n(C2OC(COP(=O)(O)OP(=O)(O)O)C(O)C2O)cc1F (configuration not stated) :: > 50 µM
Cc1cc(C)cc(-n2c3nc(=O)n(C)c(=O)c-3nc3ccccc32)c1 :: 63.5 µM
O=c1[nH]cc(CS(=O)(=O)Cc2c[nH]c(=O)[nH]c2=O)c(=O)[nH]1 :: > 100 µM
CN=C(Nn1cnnc1)OC :: > 100 µM
CCN(CC)CCN1C(=O)c2c(c(C)c3c(oc4cc(O)ccc43)c2C)C1=O :: 5.27 µM
CC(=O)O[C@H]1C#C/C=C\C#CC[C@@H]2C(=O)N(C(=O)OC(C)(C)C)[C@@H]12 :: > 93 µM
C=C(CN1CCN(c2ccccc2OC)CC1)c1ccc(C(=O)Nc2ccccc2N)cc1 :: 37.9 µM
COc1ccc(/C=C2\Cc3ccccc3C2=O)cc1OC :: > 100 µM
COC(=O)C[CH](C(=O)OC)[Ge]([CH3])([CH3])[S]c1ccccc1 (configuration not stated) :: > 100 µM
Cc1ccc2c(c1)C(=O)c1c-2n(CCCN)c(=O)c2cc([N+](=O)[O-])ccc12 :: 4.15 µM
